- test_target: ACVR1 (human) (UniProt Q04771)
- Sequence (Q04771 whole entry, looked up): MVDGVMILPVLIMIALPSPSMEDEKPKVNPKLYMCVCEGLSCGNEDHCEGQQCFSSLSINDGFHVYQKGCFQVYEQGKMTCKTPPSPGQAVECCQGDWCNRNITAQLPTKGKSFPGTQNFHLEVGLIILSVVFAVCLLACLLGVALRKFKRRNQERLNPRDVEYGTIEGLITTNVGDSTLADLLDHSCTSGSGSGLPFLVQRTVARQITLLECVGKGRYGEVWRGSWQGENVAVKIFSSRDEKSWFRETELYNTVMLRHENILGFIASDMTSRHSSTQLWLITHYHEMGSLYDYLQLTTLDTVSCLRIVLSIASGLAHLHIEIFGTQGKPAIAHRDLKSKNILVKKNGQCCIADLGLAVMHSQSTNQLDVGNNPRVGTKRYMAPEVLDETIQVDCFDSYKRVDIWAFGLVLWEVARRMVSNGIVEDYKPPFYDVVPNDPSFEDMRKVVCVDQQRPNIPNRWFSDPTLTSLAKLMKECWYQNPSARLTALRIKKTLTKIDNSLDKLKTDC
- assay_remarks: KINOMEscan competition binding
- test_conditions: compound 10.0 µM
kinase still bound, per cent of control: recorded values
reported_endpoint: kinase still bound, per cent of control (%)

1. COCC(=O)NC/C=C/c1ccc2ncnc(Nc3ccc(Oc4ccc(C)nc4)c(C)c3)c2c1: 90
2. COc1cc(N2CCN(C)CC2)ccc1Nc1ncc2c(n1)N(C)c1ccccc1C(=O)N2C: 100
3. CN(C)C/C=C/C(=O)Nc1ccc(C(=O)Nc2cccc(Nc3nccc(-c4cccnc4)n3)c2)cc1: 53
4. CCN(CC)CCCCNc1ncc2c(n1)N(C)C(=O)N(c1c(Cl)c(OC)cc(OC)c1Cl)C2: 100
5. COc1cc2ncnc(-n3nc(-c4ccccn4)nc3N)c2cc1OC: 0.2
6. C=CC(=O)Nc1ccc(CN(C(=O)Nc2c(Cl)c(OC)cc(OC)c2Cl)c2cc(Nc3ccc(N4CCN(C)CC4)cc3)ncn2)cc1: 100
7. C=CC(=O)Nc1cc(-n2c(=O)ccc3cnc4ccc(-c5cn[nH]c5)cc4c32)ccc1C: 29
8. COc1cc2ncn(-c3cc(OCc4ccccc4C(F)(F)F)c(C(N)=O)s3)c2cc1OC: 60
9. Cc1n[nH]c2ccc(-c3cncc(OC[C@@H](N)Cc4c[nH]c5ccccc45)c3)cc12: 100
10. CCN1CCN(C(=O)Cc2ccc(Nc3ncc(F)c(Nc4ccc(C(=O)Nc5ccccc5Cl)cc4)n3)cc2)CC1: 13
11. COc1ccc(N(C(=O)Oc2c(C)cccc2C)c2ccnc(Nc3ccc(N4CCN(C)CC4)cc3)n2)c(OC)c1: 0

----------
- test_target: CAMK1D (human) (UniProt Q8IU85)
- Sequence (Q8IU85 whole entry, looked up): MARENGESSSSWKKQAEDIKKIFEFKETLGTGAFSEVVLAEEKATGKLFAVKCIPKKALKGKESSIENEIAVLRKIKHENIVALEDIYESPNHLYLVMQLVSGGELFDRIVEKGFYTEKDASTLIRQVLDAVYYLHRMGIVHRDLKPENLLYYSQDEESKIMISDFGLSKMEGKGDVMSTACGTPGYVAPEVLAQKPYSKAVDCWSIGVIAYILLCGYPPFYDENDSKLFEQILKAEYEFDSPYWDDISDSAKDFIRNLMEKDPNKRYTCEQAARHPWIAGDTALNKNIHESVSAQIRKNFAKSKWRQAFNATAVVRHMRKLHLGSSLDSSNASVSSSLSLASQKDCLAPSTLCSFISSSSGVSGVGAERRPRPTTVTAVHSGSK
- assay_remarks: KINOMEscan competition binding
- test_conditions: compound 10.0 µM
kinase still bound, per cent of control: recorded values
reported_endpoint: kinase still bound, per cent of control (%)

1) N#CCNC(=O)c1ccc(-c2ccnc(Nc3ccc(N4CCOCC4)cc3)n2)cc1: 40
2) NC(=O)Nc1cc(-c2cccc(F)c2)sc1C(=O)N[C@@H]1CCCNC1: 0.2
3) CN(C)C/C=C/C(=O)Nc1ccc(C(=O)Nc2cccc(Nc3nccc(-c4cccnc4)n3)c2)cc1: 100
4) CS(=O)(=O)N1CCN(Cc2cc3nc(-c4cccc5[nH]ncc45)nc(N4CCOCC4)c3s2)CC1: 100
5) C=CC(=O)Nc1cc(-n2c(=O)ccc3cnc4ccc(-c5cn[nH]c5)cc4c32)ccc1C: 86
6) CCN(CC)CCCCNc1ncc2cc(-c3cc(OC)cc(OC)c3)c(NC(=O)NC(C)(C)C)nc2n1: 100
7) COCC(=O)NC/C=C/c1ccc2ncnc(Nc3ccc(Oc4ccc(C)nc4)c(C)c3)c2c1: 87
8) C[C@@H](Oc1cc(-c2cnn(C3CCNCC3)c2)cnc1N)c1c(Cl)ccc(F)c1Cl: 37
9) O=C(Nc1cccc(Nc2ncc(Br)c(NCCc3cnc[nH]3)n2)c1)N1CCCC1: 4.6
10) C=CC(=O)Nc1ccc(CN(C(=O)Nc2c(Cl)c(OC)cc(OC)c2Cl)c2cc(Nc3ccc(N4CCN(C)CC4)cc3)ncn2)cc1: 100
11) O=C1NC(=O)/C(=C/c2ccc3nccc(-c4ccncc4)c3c2)S1: 57
12) CNC(=O)c1cc(Oc2ccc(NC(=O)Nc3ccc(Cl)c(C(F)(F)F)c3)cc2)ccn1: 96
13) COc1cc2ncn(-c3cc(OCc4ccccc4C(F)(F)F)c(C(N)=O)s3)c2cc1OC: 100
14) O=c1cc(N2CCOCC2)oc2c(-c3cccc4c3sc3ccccc34)cccc12: 68

----------
- test_target: JAK2 JH1 catalytic (human) (UniProt O60674)
- Sequence (O60674 whole entry, looked up): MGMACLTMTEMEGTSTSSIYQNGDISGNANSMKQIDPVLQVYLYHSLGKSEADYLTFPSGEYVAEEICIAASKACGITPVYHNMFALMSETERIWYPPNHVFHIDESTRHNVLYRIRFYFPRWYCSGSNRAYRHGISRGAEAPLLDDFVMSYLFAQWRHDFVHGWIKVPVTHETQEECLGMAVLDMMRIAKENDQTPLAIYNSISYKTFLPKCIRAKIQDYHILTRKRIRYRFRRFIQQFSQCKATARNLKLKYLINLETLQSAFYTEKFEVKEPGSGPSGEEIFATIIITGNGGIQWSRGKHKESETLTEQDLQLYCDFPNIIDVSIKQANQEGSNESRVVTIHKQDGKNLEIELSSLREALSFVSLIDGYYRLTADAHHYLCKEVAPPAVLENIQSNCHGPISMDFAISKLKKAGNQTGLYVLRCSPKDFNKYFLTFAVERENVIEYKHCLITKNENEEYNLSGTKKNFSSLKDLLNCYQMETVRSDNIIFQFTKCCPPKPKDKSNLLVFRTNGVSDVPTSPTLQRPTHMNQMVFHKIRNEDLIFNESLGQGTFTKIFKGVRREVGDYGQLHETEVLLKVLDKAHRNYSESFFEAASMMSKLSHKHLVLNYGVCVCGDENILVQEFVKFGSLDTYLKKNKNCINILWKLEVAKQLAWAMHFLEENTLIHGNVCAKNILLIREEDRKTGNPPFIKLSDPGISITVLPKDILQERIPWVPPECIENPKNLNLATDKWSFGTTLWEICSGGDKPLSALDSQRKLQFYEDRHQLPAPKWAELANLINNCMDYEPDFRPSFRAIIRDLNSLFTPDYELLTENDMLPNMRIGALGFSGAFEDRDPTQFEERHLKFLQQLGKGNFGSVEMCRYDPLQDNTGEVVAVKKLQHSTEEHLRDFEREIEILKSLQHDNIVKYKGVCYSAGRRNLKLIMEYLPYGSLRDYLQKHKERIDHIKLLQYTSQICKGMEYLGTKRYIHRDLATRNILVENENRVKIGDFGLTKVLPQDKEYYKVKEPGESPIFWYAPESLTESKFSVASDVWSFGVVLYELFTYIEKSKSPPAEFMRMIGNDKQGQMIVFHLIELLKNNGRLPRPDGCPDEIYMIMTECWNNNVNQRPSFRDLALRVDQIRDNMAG
- assay_remarks: KINOMEscan competition binding
- test_conditions: compound 10.0 µM
Friendly reminder: kinase still bound, per cent of control below 30% is 1, at or above is -1.

1. COc1ccc(N(C(=O)Oc2c(C)cccc2C)c2ccnc(Nc3ccc(N4CCN(C)CC4)cc3)n2)c(OC)c1: -1
2. CNC(=O)c1ccc(Nc2cc(Nc3ccccc3S(=O)(=O)C(C)C)c3cc[nH]c3n2)nc1: 1
3. COc1cc2ncnc(-n3nc(-c4ccccn4)nc3N)c2cc1OC: 1
4. O=C1NC(=O)/C(=C/c2ccc3nccc(-c4ccncc4)c3c2)S1: -1
5. N#CCNC(=O)c1ccc(-c2ccnc(Nc3ccc(N4CCOCC4)cc3)n2)cc1: 1
6. COc1cc(N2CCN(C)CC2)ccc1Nc1ncc2c(n1)N(C)c1ccccc1C(=O)N2C: -1
7. CNC(=O)c1cc(Oc2ccc(NC(=O)Nc3ccc(Cl)c(C(F)(F)F)c3)cc2)ccn1: -1
8. CCN(CC)CCCCNc1ncc2c(n1)N(C)C(=O)N(c1c(Cl)c(OC)cc(OC)c1Cl)C2: -1
9. NC(=O)Nc1cc(-c2cccc(F)c2)sc1C(=O)N[C@@H]1CCCNC1: 1

----------
- test_target: INSR (human)
- assay_remarks: KINOMEscan competition binding
- test_conditions: compound 10.0 µM
kinase still bound, per cent of control: recorded values
reported_endpoint: kinase still bound, per cent of control (%)

1) COc1ccc(N(C(=O)Oc2c(C)cccc2C)c2ccnc(Nc3ccc(N4CCN(C)CC4)cc3)n2)c(OC)c1: 100
2) CCN(CC)CCCCNc1ncc2c(n1)N(C)C(=O)N(c1c(Cl)c(OC)cc(OC)c1Cl)C2: 100
3) CS(=O)(=O)N1CCN(Cc2cc3nc(-c4cccc5[nH]ncc45)nc(N4CCOCC4)c3s2)CC1: 100
4) N#CCNC(=O)c1ccc(-c2ccnc(Nc3ccc(N4CCOCC4)cc3)n2)cc1: 57
5) COc1cc2ncn(-c3cc(OCc4ccccc4C(F)(F)F)c(C(N)=O)s3)c2cc1OC: 84
6) CNC(=O)c1cc(Oc2ccc(NC(=O)Nc3ccc(Cl)c(C(F)(F)F)c3)cc2)ccn1: 100
7) COc1cc2ncnc(-n3nc(-c4ccccn4)nc3N)c2cc1OC: 91
8) O=C(Nc1cccc(Nc2ncc(Br)c(NCCc3cnc[nH]3)n2)c1)N1CCCC1: 27
9) O=C1NC(=O)/C(=C/c2ccc3nccc(-c4ccncc4)c3c2)S1: 77
10) NC(=O)Nc1cc(-c2cccc(F)c2)sc1C(=O)N[C@@H]1CCCNC1: 27
11) O=c1cc(N2CCOCC2)oc2c(-c3cccc4c3sc3ccccc34)cccc12: 66
12) CNC(=O)c1ccc(Nc2cc(Nc3ccccc3S(=O)(=O)C(C)C)c3cc[nH]c3n2)nc1: 0.4
13) C=CC(=O)Nc1cc(-n2c(=O)ccc3cnc4ccc(-c5cn[nH]c5)cc4c32)ccc1C: 90
14) Cc1n[nH]c2ccc(-c3cncc(OC[C@@H](N)Cc4c[nH]c5ccccc45)c3)cc12: 100
15) C[C@@H](Oc1cc(-c2cnn(C3CCNCC3)c2)cnc1N)c1c(Cl)ccc(F)c1Cl: 0.2
16) C=CC(=O)Nc1ccc(CN(C(=O)Nc2c(Cl)c(OC)cc(OC)c2Cl)c2cc(Nc3ccc(N4CCN(C)CC4)cc3)ncn2)cc1: 24
17) COc1cc(N2CCN(C)CC2)ccc1Nc1ncc2c(n1)N(C)c1ccccc1C(=O)N2C: 100

----------
- test_target: CLK3 (human) (UniProt P49761)
- Sequence (P49761 whole entry, looked up): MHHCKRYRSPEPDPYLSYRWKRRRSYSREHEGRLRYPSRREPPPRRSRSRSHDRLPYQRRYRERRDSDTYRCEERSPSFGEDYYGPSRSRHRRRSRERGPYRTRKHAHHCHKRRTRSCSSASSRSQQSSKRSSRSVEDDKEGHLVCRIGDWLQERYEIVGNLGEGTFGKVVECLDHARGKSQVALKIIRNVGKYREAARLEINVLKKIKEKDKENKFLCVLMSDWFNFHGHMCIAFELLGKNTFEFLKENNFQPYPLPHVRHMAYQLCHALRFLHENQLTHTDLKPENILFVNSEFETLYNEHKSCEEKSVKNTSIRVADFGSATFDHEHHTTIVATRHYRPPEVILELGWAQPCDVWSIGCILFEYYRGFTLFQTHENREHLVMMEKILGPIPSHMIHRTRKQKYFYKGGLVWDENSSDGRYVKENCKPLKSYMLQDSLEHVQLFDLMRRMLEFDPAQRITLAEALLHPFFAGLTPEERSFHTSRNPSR
- assay_remarks: KINOMEscan competition binding
- test_conditions: compound 10.0 µM
reported_endpoint: kinase still bound, per cent of control (%)

1) COc1cc2ncnc(-n3nc(-c4ccccn4)nc3N)c2cc1OC: 3.6
2) C=CC(=O)Nc1ccc(CN(C(=O)Nc2c(Cl)c(OC)cc(OC)c2Cl)c2cc(Nc3ccc(N4CCN(C)CC4)cc3)ncn2)cc1: 100
3) CNC(=O)c1ccc(Nc2cc(Nc3ccccc3S(=O)(=O)C(C)C)c3cc[nH]c3n2)nc1: 2.8
4) CN(C)C/C=C/C(=O)Nc1ccc(C(=O)Nc2cccc(Nc3nccc(-c4cccnc4)n3)c2)cc1: 100
5) COc1cc(N2CCN(C)CC2)ccc1Nc1ncc2c(n1)N(C)c1ccccc1C(=O)N2C: 100
6) COc1ccc(N(C(=O)Oc2c(C)cccc2C)c2ccnc(Nc3ccc(N4CCN(C)CC4)cc3)n2)c(OC)c1: 88
7) N#CCNC(=O)c1ccc(-c2ccnc(Nc3ccc(N4CCOCC4)cc3)n2)cc1: 91
8) COc1cc(C(=O)N2CCC(N3CCN(C)CC3)CC2)ccc1Nc1ncc2c(n1)N(C)c1ccccc1C(=O)N2C: 95
9) CCN(CC)CCCCNc1ncc2cc(-c3cc(OC)cc(OC)c3)c(NC(=O)NC(C)(C)C)nc2n1: 100
10) Cc1n[nH]c2ccc(-c3cncc(OC[C@@H](N)Cc4c[nH]c5ccccc45)c3)cc12: 0
11) O=c1cc(N2CCOCC2)oc2c(-c3cccc4c3sc3ccccc34)cccc12: 100
12) CNC(=O)c1cc(Oc2ccc(NC(=O)Nc3ccc(Cl)c(C(F)(F)F)c3)cc2)ccn1: 91
13) O=C1NC(=O)/C(=C/c2ccc3nccc(-c4ccncc4)c3c2)S1: 0.05
14) CCN(CC)CCCCNc1ncc2c(n1)N(C)C(=O)N(c1c(Cl)c(OC)cc(OC)c1Cl)C2: 100
15) CCN1CCN(C(=O)Cc2ccc(Nc3ncc(F)c(Nc4ccc(C(=O)Nc5ccccc5Cl)cc4)n3)cc2)CC1: 23
16) C=CC(=O)Nc1cc(-n2c(=O)ccc3cnc4ccc(-c5cn[nH]c5)cc4c32)ccc1C: 46
17) COc1cc2ncn(-c3cc(OCc4ccccc4C(F)(F)F)c(C(N)=O)s3)c2cc1OC: 83
18) COCC(=O)NC/C=C/c1ccc2ncnc(Nc3ccc(Oc4ccc(C)nc4)c(C)c3)c2c1: 100
